# System Name: GST-NEMO(1–196) (UniProt Q9Y6K9 1-196)
# Sequence (Q9Y6K9 1-196): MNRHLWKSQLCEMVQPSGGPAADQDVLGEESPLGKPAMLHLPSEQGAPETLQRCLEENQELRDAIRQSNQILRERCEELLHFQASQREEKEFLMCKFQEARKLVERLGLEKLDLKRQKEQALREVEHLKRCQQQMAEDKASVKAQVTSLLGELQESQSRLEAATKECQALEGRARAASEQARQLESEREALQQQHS
# Procedure Summary: fluorescence polarisation
Parameter: IC50 (nM)

1) PARRSEELVAEAHNLCTLLENAIQDTVREQDQSFTALDWSWLQTE (peptide, UniProt O14920 701-745, looked up) [IKKβ_(KK/RR)] = 167

The reported measurements were obtained from paper PMC4222529.
